Biological target: recombinant human MMP-8 (Homo sapiens, UniProt P22894)
Sequence (P22894 101-467): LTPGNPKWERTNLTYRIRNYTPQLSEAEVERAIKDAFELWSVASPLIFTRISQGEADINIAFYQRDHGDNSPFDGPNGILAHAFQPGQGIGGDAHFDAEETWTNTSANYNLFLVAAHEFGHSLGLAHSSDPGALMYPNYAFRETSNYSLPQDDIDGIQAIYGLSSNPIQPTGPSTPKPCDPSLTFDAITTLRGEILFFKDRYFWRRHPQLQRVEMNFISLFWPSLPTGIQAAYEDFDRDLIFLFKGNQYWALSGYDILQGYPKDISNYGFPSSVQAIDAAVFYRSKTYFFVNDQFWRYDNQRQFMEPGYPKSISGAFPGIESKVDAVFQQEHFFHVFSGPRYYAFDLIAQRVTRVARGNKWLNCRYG
Test: In-vitro fluorescence assay of MMP-8 activity
OBSERVED_PROPERTY: IC50

// solved cases for IC50 follow
Problem: Tell me the measured IC50 of Cc1cc(COc2ccc(S(=O)(=O)N[C@@H]3CN(C=O)C[C@@H]3C(=O)NO)cc2)c2ccccc2n1 (relative stereo) [Example 20] , please.
Solution: > 16.7 µM

Problem: Also Cc1cc(COc2ccc(S(=O)(=O)N[C@@H]3CN(S(C)(=O)=O)C[C@@H]3C(=O)NO)cc2)c2ccccc2n1 (relative stereo) [Example 17] , if possible.
Solution: > 16.7 µM

Consider the additional molecule presented here.
Problem: Tell me the measured IC50 of CCNC(=O)N1C[C@H](C(=O)NO)[C@H](NS(=O)(=O)c2ccc(OCc3cc(C)nc4ccccc34)cc2)C1 (relative stereo) [Example 23] , please.
Solution: > 16.7 µM

Sourced from patent US7595327B2
